Assay: MRP1 drug-resistance reversers in H69AR cells – cell-based, doxorubicin co-treatment, pilot screen (AID 601)
Conditions: H69AR cells, CellTiter-Glo, 72 h; compound alone cytotoxicity; at 10 µM
Below, each entry is listed with its recorded viability.
QUANTITY KIND: viability (%)

molecule="CC1(C)C(c2ccccc2)=NC(c2ccccc2)N1O (configuration not stated)" quantity_kind=viability reported_measurement=91.4
molecule=COC(=O)c1cn(C(=O)c2ccc(Br)o2)c2ccccc12 quantity_kind=viability reported_measurement=88.3
molecule=CC1(C)CC(=O)C(C=NCCO)=C(O)C1 quantity_kind=viability reported_measurement=91.2
molecule=Cc1ccc(C)c(N2CCN(CCCNC(=O)Cn3cc4c(n3)CCCCC4)CC2)c1 quantity_kind=viability reported_measurement=37.1
molecule=CCOC(=O)N1CCC(NC(=O)c2ccc(CS(=O)(=O)c3c(Cl)cccc3Cl)o2)CC1 quantity_kind=viability reported_measurement=104
molecule=COc1cccc(N2CCN(c3c4c(nc5ncnn35)CCC4)CC2)c1 quantity_kind=viability reported_measurement=86.9
molecule=COc1ccc(NC(=O)CN(c2ccc(C(C)C)cc2)S(=O)(=O)c2c(C)noc2C)cc1OC quantity_kind=viability reported_measurement=84.9
molecule=COc1ccccc1CNC(=O)CCn1c(=O)[nH]c2ccsc2c1=O quantity_kind=viability reported_measurement=93.9
molecule="CCN1CCN(C(c2cccs2)C(C)NC(=O)c2ccccc2)CC1 (configuration not stated)" quantity_kind=viability reported_measurement=87.3
molecule=CCOC(=O)N1CCN(Cc2nc3c(c(=O)n(C)c(=O)n3C)n2Cc2ccccc2)CC1 quantity_kind=viability reported_measurement=89.1
molecule=COCCCN(C)C1CCN(C(=O)Nc2ccc(F)cc2)CC1 quantity_kind=viability reported_measurement=89
molecule="Cc1ccc(C2c3c(oc4ccccc4c3=O)C(=O)N2c2nnc(C(C)C)s2)o1 (configuration not stated)" quantity_kind=viability reported_measurement=11.2
molecule=CN(C)c1cc(NC(=O)CN2CCOCC2)c2ccccc2n1 quantity_kind=viability reported_measurement=85.8
molecule=Cc1ccc(-c2cc(C(F)F)n3ncc(C(=O)N4CCN(c5ccccn5)CC4)c3n2)cc1 quantity_kind=viability reported_measurement=56
molecule=CCC(CC)C(=O)NCCc1cc2ccc(C)cc2[nH]c1=O quantity_kind=viability reported_measurement=87.6
molecule="Cc1nc2ccccc2c2oc(C(=O)NCCN3CCCCC3C)cc12 (configuration not stated)" quantity_kind=viability reported_measurement=93.1
molecule="O=C(NCc1ccc2c(c1)OCO2)C1CCCN(S(=O)(=O)c2cccc3cccnc23)C1 (configuration not stated)" quantity_kind=viability reported_measurement=83.3
molecule=O=C(Cn1cc2c(n1)CCCCC2)N1CCc2ccccc2C1 quantity_kind=viability reported_measurement=92.9
molecule="Cc1cccc(C(=O)N2CCN(C(=O)c3cccc(C)c3)C(C)C2)c1 (configuration not stated)" quantity_kind=viability reported_measurement=90.3
molecule="O=C(NCCOC(=O)C1COc2ccccc2O1)C1COc2ccccc2O1 (configuration not stated)" quantity_kind=viability reported_measurement=103
molecule=CCOc1ccc(N(CC(=O)Nc2cccc(OC)c2)S(=O)(=O)c2c(C)noc2C)cc1 quantity_kind=viability reported_measurement=59.6
molecule=CCN1CCN(Cc2nc3c(c(=O)n(C)c(=O)n3C)n2CC(=O)c2ccccc2)CC1 quantity_kind=viability reported_measurement=98.5
